# ELISA binding hIL-12RB2/control per entry
Biological target: T1, biotinylated recombinant human IL-12Rβ2 (produced in-house) (human, UniProt Q99665 24-622, randomly biotinylated)
T1 construct: also called hIL-12RB2; human IL-12RB2
T1 sequence: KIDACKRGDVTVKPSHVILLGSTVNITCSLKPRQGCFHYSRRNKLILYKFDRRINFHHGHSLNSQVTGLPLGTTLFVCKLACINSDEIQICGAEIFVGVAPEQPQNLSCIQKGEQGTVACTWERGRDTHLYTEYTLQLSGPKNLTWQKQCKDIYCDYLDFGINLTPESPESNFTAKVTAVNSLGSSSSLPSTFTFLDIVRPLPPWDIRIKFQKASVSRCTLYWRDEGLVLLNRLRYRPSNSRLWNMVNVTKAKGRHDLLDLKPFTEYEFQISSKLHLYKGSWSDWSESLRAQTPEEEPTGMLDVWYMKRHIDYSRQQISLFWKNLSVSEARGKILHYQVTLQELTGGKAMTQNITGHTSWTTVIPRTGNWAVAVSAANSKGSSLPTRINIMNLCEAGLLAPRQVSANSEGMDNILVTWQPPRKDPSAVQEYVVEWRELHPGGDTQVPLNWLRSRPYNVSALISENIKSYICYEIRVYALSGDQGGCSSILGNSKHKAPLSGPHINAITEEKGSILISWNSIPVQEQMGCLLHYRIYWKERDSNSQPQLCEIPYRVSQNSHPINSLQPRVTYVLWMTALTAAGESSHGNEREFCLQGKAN
Experiment: ELISA, periplasmic extract on biotinylated human IL-12Rβ2; control streptavidin-coated blocked wells
experimental endpoint: ELISA binding hIL-12RB2/control

1) anti-IL-12Rβ2 VHH clone 2CAMS29 (VHH, Tested as periplasmic extract; CDR3 group 54; also called 20534) VHH: QVQLQESGGGLVQAGGSLRLSCAASGLTSSTYVIGWFRQAPGKEREFVAAIMLSGGTTIYADSLKGRCTIYKDNAKNTVYLQMNSLKLEDTAVYYCASGLIYRYSDFPRSQKYNFWGQGTQVTVSS : 1.06 ratio to control
2) anti-IL-12Rβ2 VHH clone 3CRM66 (VHH, Tested as periplasmic extract; CDR3 group 42; also called 20461) VHH: QVQLQESGGGLVQPGGSLRLSCAASGSTFSIHAMGWYRQAPGKKRELVARITRGGSTNYADSVKGRFTISVDNAKNTVYLQMNSLKPEDTAVYDCNAETGWGEWDDYWGQGTQVTVSS : 1.38 ratio to control
3) anti-IL-12Rβ2 VHH clone 2CRM88 (VHH, Tested as periplasmic extract; CDR3 group 18; also called 20453) VHH: QVQLQESGGGLVQAGGSLRLSCQASGRTFSNYRMGWFRQAPGKEREFVAGINWDGGHTYYTDSVKGRFTISRDNAKNTVYLQMNSLKPEDTAVYQCAVRVREYGSSRYEDQFDYWGQGTQVTVSS : 0.873 ratio to control
4) anti-IL-12Rβ2 VHH clone 3CAMS63 (VHH, Tested as periplasmic extract; CDR3 group 26; also called 20552) VHH: QVQLQESGGGLVQAGGSLRLSCAASGRTFSNYAMGWFRQAPGKEREFVAAINRSGTTLYVDSVKGRFTISRDNAKNTVALQMNSLKPEDTAVYYCVAGMPFSYSDYPRDSKYDYWGQGTQVTVSS : 1.01 ratio to control
